Quick list: kon per entry.
Target: T1, hROR2-Fc (human ROR2 Fc fusion protein) (human, UniProt Q01974 34-403, limits assumed)
T1 construct: Given both as hROR2-Fc and as Fc-hROR2, so the order of the two parts is not certain; also called Fc-hROR2; not shown: human Fc part (captured by a mouse anti-human IgG CH2 / Fcγ mAb)
Assay: SPR (Biacore X100), Fc-hROR2 captured on CM5 chip via mouse anti-human Fcγ mAb, Fab as analyte, 1:1 binding model

INSERT INTO measurements (binder, result_type, experimental_result) VALUES
  ('X2.7 (Fab, V domains shown, one of the top 12 chimeric rabbit/human anti-human ROR2 Fabs selected from the focused HCDR3 mutagenesis library) VH: QSVKESEGGLFKPTDTLTLTCTVSGFSLSSYGVTWVRQAPGSGLEWIGYINTAGNTYYASWAKSRSTITRNTNENTVTLKMTSLTAADTATYFCARDSMSLNIWGPGTLVTVSS VL: DPMLTQTPSSTSTAVGDTVTIKCQASQSISSDLSWYQQKPGQRPKLLIYQASTLASGVPSRFKGSGYGTEYTLTISGVQREDAAIYYCLGGYADASYRTAFGGGTKLEIK', 'kon', '69000 M⁻¹ s⁻¹');

The binder identified as XBR2-401-X3.12 Fab (affinity matured chimeric rabbit/human Fab) (Fab, V domains shown, Chimeric rabbit/human Fab) VH: QSVKESEGGLFKPTDTLTLTCTVSGFSLSSYGVTWVRQAPGSGLEWIGYINTAGNTYYASWAKSRSTITRNTNENTVTLKMTSLTAADTATYFCARDDRWSLNIWGPGTLVTVSS VL: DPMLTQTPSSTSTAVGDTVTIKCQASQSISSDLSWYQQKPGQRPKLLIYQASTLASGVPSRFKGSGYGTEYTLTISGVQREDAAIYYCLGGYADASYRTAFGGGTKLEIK registered its kon at 45000 M⁻¹ s⁻¹

The binder identified as X3.21 (Fab, V domains shown, one of the top 12 chimeric rabbit/human anti-human ROR2 Fabs selected from the focused HCDR3 mutagenesis library) VH: QSVKESEGGLFKPTDTLTLTCTVSGFSLSSYGVTWVRQAPGSGLEWIGYINTAGNTYYASWAKSRSTITRNTNENTVTLKMTSLTAADTATYFCARDGLTSLNIWGPGTLVTVSS VL: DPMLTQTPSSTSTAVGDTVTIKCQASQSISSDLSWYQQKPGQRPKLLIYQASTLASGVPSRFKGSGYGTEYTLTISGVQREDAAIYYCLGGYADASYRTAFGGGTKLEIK registered its kon at 49000 M⁻¹ s⁻¹

The binder identified as X4.21 (Fab, V domains shown, one of the top 12 chimeric rabbit/human anti-human ROR2 Fabs selected from the focused HCDR3 mutagenesis library) VH: QSVKESEGGLFKPTDTLTLTCTVSGFSLSSYGVTWVRQAPGSGLEWIGYINTAGNTYYASWAKSRSTITRNTNENTVTLKMTSLTAADTATYFCARDSGVVSLNIWGPGTLVTVSS VL: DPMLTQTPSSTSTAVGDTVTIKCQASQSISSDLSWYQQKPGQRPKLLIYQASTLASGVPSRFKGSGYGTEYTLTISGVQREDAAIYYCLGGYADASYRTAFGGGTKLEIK registered its kon at 24000 M⁻¹ s⁻¹
